# maps each entry to its GI50
tested on: ACHN; assay: NCI tumour cell line growth inhibition, 48 h
Active and inactive are the calls of the source. Rule as the data show it: active = GI50 up to about 1.1 µM and inactive = higher.

Worked set:
Cc1c(C(=O)CSc2nc3ccccc3c(=O)n2-c2ccccc2)c(=O)n(-c2ccccc2)n1C
35.2 µM (inactive)
CC(N)C(=O)OCN1C(=O)C2C3C=CC(C2C1=O)C1C2C(=O)N(COC(=O)C(C)N)C(=O)C2C31 (stereo unspecified)
27.7 µM (inactive)
O=c1oc2ccccc2cc1/C=N/N1C(=S)N(c2ccccc2)C(=N\c2ccccc2)/C1=N/c1ccccc1
39.6 µM (inactive)

Let's switch to this molecule now.
Lab note: record GI50 of O=c1c2cc([N+](=O)[O-])ccc2[nH]n1Cc1ccccc1Cl tested on ACHN.
46.1 µM (inactive)
